Across several publications, the following log10 of IC50 results were reported for Amine oxidase [copper-containing] 3 (Homo sapiens, UniProt Q16853).
Note the log scale: values are log10 of IC50 expressed in µM.

Input: Please indicate recorded log10 of IC50 of CN(Cc1cccc(-c2cnc(N3CCN(c4ncccc4Cl)CC3)nc2)c1)C(=O)CN measured with Amine oxidase [copper-containing] 3 (Homo sapiens, UniProt Q16853).
Output: -1.14

Input: # assay system Amine oxidase [copper-containing] 3 (Homo sapiens, UniProt Q16853): give log10 of IC50 of COCc1ccc(N2CCN(c3cccc(COC(=O)NC(=N)N)c3F)CC2)cn1
Output: -1.68

Input: Please indicate recorded log10 of IC50 of NC/C(=C\F)COc1ccc2c(c1)CN(Cc1ccc(Cl)cc1)C2=O measured with Amine oxidase [copper-containing] 3 (Homo sapiens, UniProt Q16853).
Output: -2.31

Input: # return log10 of IC50 of CC(=O)N1CCN(c2ccc(CCc3ccc(C(=O)NN)s3)nc2)CC1 (system: Amine oxidase [copper-containing] 3 (Homo sapiens, UniProt Q16853))
Output: -2.02

Input: Enter log10 of IC50 (test system Amine oxidase [copper-containing] 3 (Homo sapiens, UniProt Q16853)) for Cn1cc(OC2CN(c3cccc(COC(=O)NC(=N)N)c3F)C2)ccc1=O
Output: -1.96

Input: Determine reported log10 of IC50 for NCC(=CF)COc1ccc2c(c1)CN(Cc1ccc(Cl)cc1)C2=O ; test system: Amine oxidase [copper-containing] 3 (Homo sapiens, UniProt Q16853).
Output: -2.48

Input: Find log10 of IC50 for CN(Cc1cccc(-c2cnc(N3CCN(c4ncc(C(=O)O)cc4Cl)CC3)nc2)c1)C(=O)CN on Amine oxidase [copper-containing] 3 (Homo sapiens, UniProt Q16853) and write it down.
Output: -1.74

Input: Answer with log10 of IC50 of COCCOc1cc(N2CCN(c3cccc(COC(=O)NC(=N)N)c3F)CC2)ccn1 measured for Amine oxidase [copper-containing] 3 (Homo sapiens, UniProt Q16853).
Output: -1.72

Input: Fetch value of log10 of IC50 on Amine oxidase [copper-containing] 3 (Homo sapiens, UniProt Q16853) for CC(=O)N1CCN(c2ccc(CCc3ccc(CCOC(=O)NN)s3)nc2)CC1 .
Output: -2.40

Input: Name the recorded log10 of IC50 of COCc1ccc(OC2CN(c3cccc(COC(=O)NC(=N)N)c3F)C2)cn1 , assay system Amine oxidase [copper-containing] 3 (Homo sapiens, UniProt Q16853).
Output: -1.70

Input: # return log10 of IC50 of N=C(N)NC(=O)NCc1cccc(-c2cnc(N3CCOCC3)nc2)c1 (system: Amine oxidase [copper-containing] 3 (Homo sapiens, UniProt Q16853))
Output: -1.29

Input: Report measured log10 of IC50 on Amine oxidase [copper-containing] 3 (Homo sapiens, UniProt Q16853); entry: NCC(=CF)COc1ccc(C(=O)N2CCc3ccccc3[C@@H]2c2ccccc2)cc1
Output: -1.98

Input: Give log10 of IC50 for this entry on Amine oxidase [copper-containing] 3 (Homo sapiens, UniProt Q16853): CC1(O)CCN(c2ncc(N3CCN(c4cccc(COC(=O)NC(=N)N)c4F)CC3)cn2)CC1
Output: -1.49

Input: Report its log10 of IC50 with Amine oxidase [copper-containing] 3 (Homo sapiens, UniProt Q16853) as the test system: CN(Cc1cccc(-c2cnc(N3CCC(O)CC3)nc2)c1)C(=O)CN
Output: -0.85

Input: Fill: log10 of IC50 (Amine oxidase [copper-containing] 3 (Homo sapiens, UniProt Q16853)) for this molecule N=C(N)NC(=O)OCc1cccc(N2CCN(c3cccnc3)C(=O)C2)c1F
Output: -1.47

Input: Recall the reported log10 of IC50 of N=C(N)NC(=O)OCc1cccc(-c2cnc(N3CCN(c4ccc(CCC(=O)O)cc4)CC3)nc2)c1F when tested on Amine oxidase [copper-containing] 3 (Homo sapiens, UniProt Q16853).
Output: -1.96

Input: GET log10 of IC50 | system: Amine oxidase [copper-containing] 3 (Homo sapiens, UniProt Q16853) | item: COC1CN(c2ncc(-c3cccc(COC(=O)NC(=N)N)c3F)cn2)C1
Output: -2.47

Input: Report value only: log10 of IC50, Amine oxidase [copper-containing] 3 (Homo sapiens, UniProt Q16853), CCS(=O)(=O)N1CCN(c2cccc(COC(=O)NC(=N)N)c2F)CC1
Output: -1.31
